IC50 by entry:
- target.system: PARP7 (Homo sapiens)
- Sequence (Q7Z3E1 1-657): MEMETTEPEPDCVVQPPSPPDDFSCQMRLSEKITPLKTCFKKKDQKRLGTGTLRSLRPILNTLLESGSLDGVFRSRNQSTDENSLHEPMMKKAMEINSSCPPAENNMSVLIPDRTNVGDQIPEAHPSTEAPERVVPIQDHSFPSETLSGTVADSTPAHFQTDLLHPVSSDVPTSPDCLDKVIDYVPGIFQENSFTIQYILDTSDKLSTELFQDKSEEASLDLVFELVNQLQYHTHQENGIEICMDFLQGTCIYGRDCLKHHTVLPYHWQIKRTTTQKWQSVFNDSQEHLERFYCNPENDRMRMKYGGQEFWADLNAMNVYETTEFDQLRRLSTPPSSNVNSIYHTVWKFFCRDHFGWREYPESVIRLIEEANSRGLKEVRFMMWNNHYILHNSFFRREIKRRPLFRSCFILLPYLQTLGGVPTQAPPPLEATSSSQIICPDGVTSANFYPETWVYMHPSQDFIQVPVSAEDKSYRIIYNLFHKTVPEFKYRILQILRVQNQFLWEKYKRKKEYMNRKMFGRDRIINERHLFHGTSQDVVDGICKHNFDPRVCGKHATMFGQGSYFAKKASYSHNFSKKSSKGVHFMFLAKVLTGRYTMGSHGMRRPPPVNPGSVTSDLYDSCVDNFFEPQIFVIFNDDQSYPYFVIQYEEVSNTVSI

Below: 2 compounds and their reported IC50.
compound	target.system	quantity.name	reported.result
O=C(COC1CCNc2c1n[nH]c(=O)c2C(F)(F)F)N1CCN(c2ncc(C(F)(F)F)cn2)CC1 (racemic) [Compound 1]	PARP7 (Homo sapiens)	IC50	< 100 nM
O=C(CC1CN(c2cc(C(F)(F)F)c(=O)[nH]n2)c2ccc(F)cc2O1)N1CCN(c2ncc(C(F)(F)F)cn2)CC1 (single isomer, unassigned) [Compound 158]	PARP7 (Homo sapiens)	IC50	100 to 1000 nM

-- ask // query IC50 value for entry C#Cc1c2c(n[nH]c1=O)[C@H](OCC(=O)N1CCN(c3ncc(C(F)(F)F)cn3)CC1)CCO2 [Compound 12]
-- reply < 100 nM
